I'd appreciate it if you could supply IC50 (ug/ml), pseudovirus neutralization, TZM-bl assay values for the items below.
- Target Under Test: JR-CSF(1309A) Env on pseudovirus (HIV-1 JR-CSF) (UniProt P20871)
- Procedure Text: cell-based or functional assay

Query: // returns reported IC50 (ug/ml), pseudovirus neutralization, TZM-bl assay for input 1503_H05 (PG16) (TCN-119) (antibody, V domains shown) VH: QEKLVESGGGVVQPGGSLRLSCLASGFTFHKYGMHWVRQAPGKGLEWVALISDDGMRKYHSDSMWGRVTISRDNSKNTLYLQFSSLKVEDTAMFFCAREAGGPIWHDDVKYYDFNDGYYNYHYMDVWGKGTIVTVSS VL: QSALTQPASVSGSPGQTITISCNGTRSDVGGFDSVSWYQQSPGKAPKVMVFDVSHRPSGISNRFSGSKSGNTASLTISGLHIEDEGDYFCSSLTDRSHRIFGGGTKVTVLG
Reply: > 1 µg/mL

Query: // returns reported IC50 (ug/ml), pseudovirus neutralization, TZM-bl assay for input 1469_M23 (PG16) (TCN-118) (antibody, V domains shown) VH: QEKLVESGGGVVQPGGSLRLSCLASGFTFHKYGMHWVRQAPGKGLEWVALISDDGMRKYHSDSMWGRVTISRDNSKNTLYLQFSSLKVEDTAMFFCAREAGGPIWHDDVKYYDFNDGYYNYHYMDVWGKGTTVTVSS VL: QSALTQPASVSGSPGQTITISCNGTRSDVGGFDSVSWYQQSPGRAPKVMVFDVSHRPSGISNRFSGSKSGNTASLTISGLHIEDEGDYFCSSLTDRSHRIFGGGTKLTVLG
Reply: > 1 µg/mL

Query: // returns reported IC50 (ug/ml), pseudovirus neutralization, TZM-bl assay for input 1489_I13 (PG16) (TCN-120) (antibody, V domains shown) VH: QEQLLESGGGVVQPGGSLRLSCLASGFTFHKYGMHWVRQAPGKGLEWVALISDDGMRKYHSNSMWGRVTISRDNSKNTLYLQFSSLKVEDTAMFFCAREAGGPIWHDDVKYYDFNDGYYNYHYMDVWGKGTTVTVSS VL: QSALTQPASVSGSPGQTITISCNGTSSDVGGFDSVSWYQQSPGKAPKVMVFDVSHRPSGISNRFSGSKSGNTASLTISGLHIEDEGDYFCSSLTDRSHRIFGGGTKVTVLG
Reply: > 1 µg/mL

Query: // returns reported IC50 (ug/ml), pseudovirus neutralization, TZM-bl assay for input 1456_A12 (PG16) (TCN-117) (antibody, V domains shown) VH: HEQLVEAGGGVVQPGGSLRLSCLASGFTFHKYGMHWVRQAPGKGLEWVALISDDGMRKYHSDSMWGRVTISRDNSKNTLYLQFSSLRVEDTAMFFCAREAGGPIWHDDVKYYDFNDGYYNYHYMDVWGKGTKVTVSS VL: QSALTQPASVSGSPGQTITISCNGTSRDVGGFDSVSWYQQSPGKAPKVMVFDVSHRPSGMSNRFSGSKSGNTASLTISGLHIEDEGDYFCSSLTDRSHRIFGGGTKLTVLG
Reply: > 1 µg/mL
